The measurements presented in this section are drawn from patent US9169224B2.

Target: FAAH (Homo sapiens (Human))
Sequence (O00519 whole entry): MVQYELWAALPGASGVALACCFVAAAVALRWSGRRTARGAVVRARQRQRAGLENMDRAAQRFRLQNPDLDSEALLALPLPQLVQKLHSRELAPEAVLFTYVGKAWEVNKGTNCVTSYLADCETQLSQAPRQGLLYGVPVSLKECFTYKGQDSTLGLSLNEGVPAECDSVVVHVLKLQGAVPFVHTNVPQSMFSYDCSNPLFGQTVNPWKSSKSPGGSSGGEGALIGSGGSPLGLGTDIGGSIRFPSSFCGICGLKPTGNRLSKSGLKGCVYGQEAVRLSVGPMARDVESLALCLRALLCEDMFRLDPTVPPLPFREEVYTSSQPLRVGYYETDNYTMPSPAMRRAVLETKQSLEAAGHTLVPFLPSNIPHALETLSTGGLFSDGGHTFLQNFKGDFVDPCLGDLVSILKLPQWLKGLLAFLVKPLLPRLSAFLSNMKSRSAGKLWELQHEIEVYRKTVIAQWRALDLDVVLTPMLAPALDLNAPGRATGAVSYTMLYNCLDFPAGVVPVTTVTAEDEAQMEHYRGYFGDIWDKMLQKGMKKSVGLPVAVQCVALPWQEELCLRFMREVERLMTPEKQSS
Test: Assay Method 2: FAAH assay, cells transfected with human FAAH
Type: biochemical
Settings: T84 or human FAAH-transfected SK-N-MC cell homogenate, 3H-AEA tracer 80 nM, 1 h at rt
Structures can show the parent of a compound that is named as a salt.
endpoint: log10 of IC50 (log10 of the value in nM)
Note the log scale: values are log10 of IC50 expressed in nM.

// worked examples, log10 of IC50 included
O=C(Nc1ccccc1)N1CCN(Cc2ccc3ccccc3c2O)CC1 [Example 59] | 1.20
O=C(Nc1ccncn1)N1CCN(Cc2ccc(Br)c(Br)c2)CC1 [Example 154] | 2.45
O=C(Nc1ccncc1)N1CCN(Cc2cnc3ccccc3c2)CC1 [Example 144] | 3.30
O=C(O)c1cccc(NC(=O)N2CCN(Cc3cnc4ccccc4c3)CC2)c1 [Example 141, (potassium salt)] | 3.70
O=C(Nc1ncccn1)N1CCN(Cc2cnc3ccccc3c2)CC1 [Example 145] | 3.90

Ask: Need log10 of IC50 of O=C(Nc1ccccc1)N1CCN(Cc2ccc(Cl)c(Cl)c2)CC1 [Example 157] , thanks.
Result: 1.81

Ask: Let us now turn to O=C(Nc1ccncc1)N1CCN(Cc2ccc3c(c2)OCO3)CC1 [Example 147]
Result: 3.48

Ask: Let us now turn to O=C(Nc1ccncn1)N1CCN(Cc2ccc3c(c2)OC(F)(F)O3)CC1 [Example 153]
Result: 3.00

###

The compounds listed here are annotated with their IC50.
Target: rat FAAH (Rattus norvegicus (Rat), UniProt P97612)
Sequence (P97612 whole entry): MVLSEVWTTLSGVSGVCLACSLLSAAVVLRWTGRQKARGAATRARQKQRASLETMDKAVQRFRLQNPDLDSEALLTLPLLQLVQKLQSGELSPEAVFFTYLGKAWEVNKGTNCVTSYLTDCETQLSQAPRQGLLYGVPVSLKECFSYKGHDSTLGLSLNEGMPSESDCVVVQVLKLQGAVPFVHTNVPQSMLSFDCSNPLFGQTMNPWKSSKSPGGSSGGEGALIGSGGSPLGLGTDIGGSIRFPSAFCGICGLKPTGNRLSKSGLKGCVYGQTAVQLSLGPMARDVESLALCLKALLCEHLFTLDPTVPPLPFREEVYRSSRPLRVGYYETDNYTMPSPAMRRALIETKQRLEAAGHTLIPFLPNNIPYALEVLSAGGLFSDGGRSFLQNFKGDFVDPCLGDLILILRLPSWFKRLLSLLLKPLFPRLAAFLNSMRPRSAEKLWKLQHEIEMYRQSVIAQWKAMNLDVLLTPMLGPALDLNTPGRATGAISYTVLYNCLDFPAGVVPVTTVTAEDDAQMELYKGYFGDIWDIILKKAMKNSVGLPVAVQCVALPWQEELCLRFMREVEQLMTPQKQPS
Assay: Assay Method 3: FAAH assay, cells transfected with rat FAAH
Type: biochemical
Settings: T84 or rat FAAH-transfected SK-N-MC cell homogenate, 3H-AEA tracer 80 nM, 1 h at rt
Return type: number; implicit unit µM.

// worked examples, IC50 included
O=C(Nc1ccncn1)N1CCN(Cc2cnc3ccccc3c2)CC1 [Example 152] | 10
O=C(Nc1ccccc1)N1CCN(Cc2ccc(Cl)c(Cl)c2)CC1 [Example 157] | 0.35
O=C(Nc1ccncc1)N1CCN(Cc2ccc3c(c2)OCO3)CC1 [Example 147] | 10
COc1cc(Br)cc(CN2CCN(C(=O)Nc3ccccc3)CC2)c1O [Example 26] | 0.13

Continue with the next compound.
Ask: Need IC50 of O=C(Nc1nccs1)N1CCN(Cc2cnc3ccccc3c2)CC1 [Example 158] , thanks.
Result: 10

###

The compounds listed here are annotated with their log10(IC50).
Biological target: UniProtKB O00519
Assay: Assay Method 1: FAAH assay, T84 cell homogenate, 3H-anandamide hydrolysis
Assay type: biochemical
Settings: 3H-AEA tracer 200 nM, 1 h at rt
Note the log scale: values are log10 of IC50 expressed in nM.

// worked examples, log10(IC50) included
Cn1ccc2ccc(CN3CCN(C(=O)Nc4ccccc4)CC3)cc21 [Example 76] | 2.54
O=C(Nc1ccccc1)N1CCN(Cc2cccc(OCCN3CCCCC3)c2)CC1 [Example 126] | 3.30
O=C(Nc1ccccc1F)N1CCN(Cc2cnc3ccccc3c2)CC1 [Example 112] | 1.79
O=C(Nc1cccnc1)N1CCN(Cc2ccc(Br)c(Br)c2)CC1 [Example 118] | 1.43

Ask: Need log10(IC50) of O=C(Nc1ccccc1)N1CCN(Cc2cccc(Oc3ccccc3)c2)CC1 [Example 28] , thanks.
Result: 1.90

Ask: Let us now turn to O=C(Nc1cccc(Cl)c1)N1CCN(Cc2cnc3ccccc3c2)CC1 [Example 100]
Result: 2.30

Ask: Let us now turn to O=C(Nc1ccccc1)N1CCN(Cc2ccc3ccccc3c2O)CC1 [Example 59]
Result: 1.32

Ask: Let us now turn to Cc1ccccc1NC(=O)N1CCN(Cc2cnc3ccccc3c2)CC1 [Example 103]
Result: 3.78
